EXPERIMENTAL PROTOCOL: BSK_SAg_SRB: Viability Assessment in the BioMAP Diversity Plus: SAg Assay (AID 2283096);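 further: cells read one day after compound addition; hits may be either gain or loss of signal compared with DMSO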
CONDITION SET: primary human HUVEC with PBMC
Active and inactive are the calls of the source. How the source made its calls: active means hit-call score of the fitted dose curve at least 0.9, where 1 is the maximum; inactive means score below 0.9.
Your reply should match one of these outcome classes. active, inactive

[[record]]
structure_string = "CCCN(CCC)c1c([N+](=O)[O-])cc(C(F)(F)F)c(N)c1[N+](=O)[O-]"
class_name = "active"

[[record]]
structure_string = "C[C@]12C[C@H](O)[C@H]3[C@@H](CCC4=CC(=O)CC[C@@]43C)[C@@H]1CC[C@@H]2C(=O)CO"
class_name = "inactive"


Could you please tell me the result logged for O=C(O)c1ccccc1 in this assay? inactive

Could you please tell me the result logged for O=C(c1ccccc1)C1CCCCC1 in this assay? inactive

Could you please tell me the result logged for CCOC(=O)c1ccc(O)cc1 in this assay? inactive

Could you please tell me the result logged for O=C(Nc1ccc([N+](=O)[O-])cc1Cl)c1cc(Cl)ccc1O in this assay? active

Could you please tell me the result logged for CCOC(=O)NCCOc1ccc(Oc2ccccc2)cc1 in this assay? active

Could you please tell me the result logged for c1ccc(Nc2ccccc2)cc1 in this assay? inactive

Could you please tell me the result logged for CC(=O)[C@H]1CC[C@H]2[C@@H]3CCC4=CC(=O)CC[C@]4(C)[C@H]3CC[C@]12C in this assay? active

Could you please tell me the result logged for CCCN(CCC)C(=O)SCC in this assay? inactive

Could you please tell me the result logged for CC(C)CCCCCCc1ccc(O)cc1 in this assay? active

Could you please tell me the result logged for COC(=O)c1ccc(I)cc1S(=O)(=O)NC(=O)Nc1nc(C)nc(OC)n1 in this assay? inactive

* * *

Read-out: Vascular cell adhesion molecule 1 (VCAM1), VCAM1 (gene 7412)
EXPERIMENTAL PROTOCOL: BSK_LPS_VCAM1: BioMAP Diversity Plus: LPS Assay for Vascular cell adhesion molecule 1 (VCAM1) Biomarker Activity (AID 2283086)
CONDITION SET: primary human HUVEC with PBMC; actives raise or lower the signal
The source made the active and inactive calls. How the source made its calls: active means hit-call score of the fitted dose curve at least 0.9, where 1 is the maximum; inactive means score below 0.9.
Your reply should match one of these outcome classes. TRUE = active, FALSE = inactive

Example cases with answers are listed next.
[[record]]
compound = "CN(C)C(=O)Nc1ccc(Cl)c(Cl)c1"
class_name = "FALSE"

[[record]]
compound = "CSC(=O)c1cccc2nnsc12"
class_name = "FALSE"


Could you please tell me the result logged for CCCCOC(=O)C(C)Oc1ccc(Oc2ccc(C(F)(F)F)cn2)cc1 (stereo unspecified) in this assay? FALSE

Could you please tell me the result logged for COC(=O)c1ccc(CNS(C)(=O)=O)cc1S(=O)(=O)NC(=O)Nc1nc(OC)cc(OC)n1 in this assay? FALSE

Could you please tell me the result logged for C[C@]12CC[C@@H]3c4ccc(O)cc4C[C@@H](CCCCCCCCCS(=O)CCCC(F)(F)C(F)(F)F)[C@H]3[C@@H]1CC[C@@H]2O (stereo partly specified) in this assay? FALSE

Could you please tell me the result logged for C[C@]12C[C@H](O)[C@H]3[C@@H](CCC4=CC(=O)CC[C@@]43C)[C@@H]1CC[C@@H]2C(=O)CO in this assay? FALSE

Could you please tell me the result logged for CCOC(=O)[C@H](C)Oc1ccc(Oc2nc3ccc(Cl)cc3o2)cc1 in this assay? FALSE

Could you please tell me the result logged for CCCN(CCC)c1c([N+](=O)[O-])cc(C(F)(F)F)c(N)c1[N+](=O)[O-] in this assay? TRUE

Could you please tell me the result logged for CCN(Cc1c(F)cccc1Cl)c1c([N+](=O)[O-])cc(C(F)(F)F)cc1[N+](=O)[O-] in this assay? FALSE

Could you please tell me the result logged for CCCCCCC(C)OC(=O)COc1nc(F)c(Cl)c(N)c1Cl (stereo unspecified) in this assay? TRUE

Could you please tell me the result logged for O=C(c1ccccc1)C1CCCCC1 in this assay? FALSE

Could you please tell me the result logged for O=C(c1ccc(O)cc1O)c1ccc(O)cc1O in this assay? FALSE

Could you please tell me the result logged for CCCCOC(=O)[C@@H](C)Oc1ccc(Oc2ccc(C(F)(F)F)cn2)cc1 in this assay? FALSE
